- Tested on: rabbit progesterone receptor (rbPR) and glucocorticoid receptor (rbGR)
- TEST_NAME: Receptor-binding assays, ratio of relative binding affinities rbPR/rbGR
- PARTICULARS: ratio of relative binding affinities (RBA = EC50 of standard/EC50 of test compound x 100) for rbPR and rbGR
Doc: threshold 2 (exclusive). Items with rbPR/rbGR beneath it return true; others return false.

Q: Strictly below 2 in rbPR/rbGR? "COCC(=O)[C@@]1(OC(C)=O)CC[C@H]2[C@@H]3CCC4=CC(=O)CCC4=C3[C@@H](c3ccc(N(C)C)cc3)C[C@@]21C"
Result: true

Q: Would you mind doing CC(=O)O[C@]1(C(C)=O)CC[C@H]2[C@@H]3CCC4=CC(=O)CCC4=C3[C@@H](c3ccc(N(C)C)cc3)C[C@@]21C [CDB-2914, reference compound] as well?
Result: true

Q: And for CC(=O)O[C@]1(C(=O)COC(=O)CN)CCC2C3CCC4=CC(=O)CCC4=C3C(c3ccc(N(C)C)cc3)C[C@@]21C (stereo partly drawn) ?
Result: false

Q: Next entry: CSCC(=O)[C@@]1(OC(C)=O)CCC2C3CCC4=CC(=O)CCC4=C3C(c3ccc(N(C)C)cc3)C[C@@]21C (stereo partly drawn)
Result: true

Q: Would you mind doing CC(=O)OCC(=O)[C@@]1(OC(C)=O)CCC2C3CCC4=CC(=O)CCC4=C3C(c3ccc(N(C)C)cc3)C[C@@]21C (stereo partly drawn) as well?
Result: true

--- query ---
Q: Regarding C=COCC(=O)[C@@]1(OC(C)=O)CCC2C3CCC4=CC(=O)CCC4=C3C(c3ccc(N(C)C)cc3)C[C@@]21C (stereo partly drawn) , kindly confirm whether its rbPR/rbGR is beneath 2.
Result: false

----------
- ASSAYED_TARGET: glucocorticoid receptor (rbGR) (Oryctolagus cuniculus)
- Construct: cytosol containing PR or GR were prepared in TEGMD buffer; from tissue; host or cells: thymus of estradiol-primed immature rabbits (cytosol)
- Sequence (P59667 1-772): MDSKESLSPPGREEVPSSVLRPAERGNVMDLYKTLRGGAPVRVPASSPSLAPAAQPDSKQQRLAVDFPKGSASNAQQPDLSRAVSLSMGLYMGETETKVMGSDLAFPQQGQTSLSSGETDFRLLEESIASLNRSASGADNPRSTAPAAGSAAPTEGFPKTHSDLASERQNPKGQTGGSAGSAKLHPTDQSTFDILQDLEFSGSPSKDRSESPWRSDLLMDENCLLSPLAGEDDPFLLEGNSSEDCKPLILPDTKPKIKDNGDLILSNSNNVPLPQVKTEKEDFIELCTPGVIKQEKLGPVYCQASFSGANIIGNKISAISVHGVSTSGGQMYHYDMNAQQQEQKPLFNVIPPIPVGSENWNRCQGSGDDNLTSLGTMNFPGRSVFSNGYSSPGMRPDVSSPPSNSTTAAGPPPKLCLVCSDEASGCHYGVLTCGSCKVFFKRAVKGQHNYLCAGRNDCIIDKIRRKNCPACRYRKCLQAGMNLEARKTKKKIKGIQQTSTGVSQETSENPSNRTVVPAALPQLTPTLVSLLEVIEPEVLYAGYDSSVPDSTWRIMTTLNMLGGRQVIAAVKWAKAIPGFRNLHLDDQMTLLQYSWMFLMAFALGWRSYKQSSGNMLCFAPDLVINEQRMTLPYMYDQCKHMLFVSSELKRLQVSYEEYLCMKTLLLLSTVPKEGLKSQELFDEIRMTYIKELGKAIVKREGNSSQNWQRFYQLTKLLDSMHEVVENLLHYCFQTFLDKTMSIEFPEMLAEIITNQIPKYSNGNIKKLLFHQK
- TEST_NAME: Glucocorticoid receptor binding / anti-glucocorticoid receptor activity
- Set-up: species or system rabbit
PARAMETER_MEASURED: anti-glucocorticoid receptor activity / glucocorticoid receptor binding

Q: Look up anti-glucocorticoid receptor activity / glucocorticoid receptor binding: "CC#C[C@]1(O)CC[C@H]2[C@@H]3CCC4=CC(=O)CCC4=C3[C@@H](c3ccc(N(C)C)cc3)C[C@@]21C"
Result: moderately active

Q: Record: CC(=O)O[C@]1(C(C)=O)CC[C@H]2[C@@H]3CCC4=CC(=O)CCC4=C3[C@@H](c3ccc(N(C)C)cc3)C[C@@]21C [CDB-2914, reference compound]
Result: moderately active
